Reported growth inhibition values follow for various molecules
Assay Info: NCI Yeast Anticancer Drug Screen. Data for the sgs1 mgt1 strain (AID 161);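 also: 0% = growth of cultures given vehicle only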
Condition Parameters: S. cerevisiae sgs1 mgt1 strain, at 50.0 µM, hits give high values
Compounds without any hit were thinned out: in the full panel of roughly 79,000, 15% have a hit.
Numeric answer only, unit % assumed.

Consider the worked cases shown below.
Cn1c(-c2ccccc2)c(/C=C/C2=[N+](C)c3ccccc3C2(C)C)c2ccccc21
99.6
O=C(O)c1cc2c(s1)C(=O)c1sccc1C2=O
72
O=C(Nc1ccc(Cl)c(Cl)c1)OCc1ccco1
92.9

Noted for Nc1ncnc2c1nc(N1CCCCC1)n2C1OC(CO)C(O)C1O (stereo unspecified) : its growth inhibition reads 9.9

Briefly, growth inhibition measured for `O=C(O)CCCOc1cc(-c2ccccc2F)nc2cc3c(cc12)OCO3` : 71

growth inhibition in this record for `COC(=O)c1ccc(=O)c2nc3/c(=C/O)c(O)cc(=O)c3[nH]c12` : 91.2

Short answer for `COC(=O)C(=[N+]=[N-])C(=O)c1ccc([N+](=O)[O-])o1` : growth inhibition was 51.8
